FYI, the data here is from paper PMC11298430.

Test system: Toxoplasma gondii ME49 tachyzoites
method summary: Toxoplasma gondii in vitro inhibition assay (3H-uracil incorporation)
Format: cell-based
experimental context: Toxoplasma gondii, HS27, read-out: IC50 ± S.D.
Reported IC50 values for the following compounds.

[[record]]
mol_smiles = "COc1cc(O)c(C(=O)/C=C/c2ccc(Br)cc2)c(OC)c1"
system_under_test = "Toxoplasma gondii ME49 tachyzoites"
observed_value = "> 50 µM"

[[record]]
mol_smiles = "COc1cc(O)c(C(=O)/C=C/c2ccc(N(C)C)cc2)c(OC)c1"
system_under_test = "Toxoplasma gondii ME49 tachyzoites"
observed_value = "> 50 µM"


*Q* Report IC50 under test system Toxoplasma gondii ME49 tachyzoites for `COc1cc(O)c(C(=O)/C=C/c2ccccc2Br)c(OC)c1` .
*A* 4.46 µM
